Data credit: patent US20190367619A1

Molecular target: T1, human galectin-10-His (recombinant human galectin-10 with TEV-cleavable N-terminal His-tag) (human)
T1 construct: SEC-MALLS: dimer in solution; also called Gal10-His; humanGal10-His
T1 chain: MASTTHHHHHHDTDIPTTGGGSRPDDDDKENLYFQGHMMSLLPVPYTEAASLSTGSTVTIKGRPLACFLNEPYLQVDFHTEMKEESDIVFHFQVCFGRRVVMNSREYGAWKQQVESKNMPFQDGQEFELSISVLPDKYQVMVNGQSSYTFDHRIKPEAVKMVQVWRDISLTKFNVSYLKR
Assay: ELISA, scFv-hFc on coated galectin-10-His (0.2 ug/mL)
# reported Bmax (OD values); entries follow
property label: Bmax (OD values) (OD)

3A03 scFv-human Fc (Fc fusion, about 100 kDa on SDS-PAGE; also called 3A03 ScFv-hFc; not shown: CH2-CH3 constant domains of human IgG1 (vector pUPEX50)) scFv: QVQLVESGGGLVQPGGSLRLSCATSGFTFSVYAMSWVRQAPGKGLEWVADINTSGDSTTYADSVKGRFTISRDNAKNTLYLQMNSLKPEDTAVYYCANRYTQERGQGTQVTVSSGGGGSGGGGSGGGGSDVVLTQTPGSLSVVPGEAASISCKPGRTLVHTDGRTYLYWLQQKPGQRPQLLIYQVSNRGSGVPDRFTGSGSGTDFTLKISGVKAEDAGVYYCAQATYYPLTFGSGTRLEIK    1.81
2B11 scFv-human Fc (Fc fusion, about 100 kDa on SDS-PAGE; also called 2B11 ScFv-hFc; not shown: CH2-CH3 constant domains of human IgG1 (vector pUPEX50)) scFv: QVQLQESGPGLVKPSQTLSLTCTVSGGSITTNYYYWSWIRQPPGKGLEWMGAIAYSGSTYYSPSLKSRTSISRDTSKNQFTLQLSSVTPEDTAVYYCARAPYGISREYDYWGQGTQVTVSSGGGGSGGGGSGGGGSHSAVTQPSAVSVSLGQTARITCQGGKFGRYYASWYQQKPGQAPVLVIYKDSERPSGIPERFSGSSSGDTATLSISGAQAEDEADYFCQSGRSSDNAVFGGGTHLTVL    2.43
